Cited source for all entries: PubChem BioAssay AID1259343

assay overview: Mycobacterium tuberculosis growth inhibition, primary screen (AID 1259343)
test settings: at 10 µM, hits give high values
Hit rate of the full screen: of about 6,200 compounds, about 2,900 (47%) were called active. So high a share suggests a set chosen from earlier hits. This is one part of the list.
Assign Criterion met to entries whose inhibition meets or exceeds 50%; assign Criterion not met to the rest.

The following compounds have reported results that may help.
Identify whether the reported inhibition of the following compound is 50% or greater: S=c1nnc2c3ccccc3[nH]c2n1CCc1ccccc1
Criterion not met

Identify whether the reported inhibition of the following compound is 50% or greater: O=C(NCCOc1cccc(C(F)(F)F)c1)c1ccc(Cl)c([N+](=O)[O-])c1
Criterion met

Identify whether the reported inhibition of the following compound is 50% or greater: OCCn1c(CSc2nc3ccccc3o2)nc2ccc(Cl)cc21
Criterion not met

Identify whether the reported inhibition of the following compound is 50% or greater: C=C(C)CSc1nnc2c(n1)[nH]c1ccccc12
Criterion met

Identify whether the reported inhibition of the following compound is 50% or greater: CCCCN=C1NN=C(C23CC4CC(CC(C4)C2)C3)C(C)S1 (configuration not stated)
Criterion met

Turning now to a further record.
Identify whether the reported inhibition of the following compound is 50% or greater: CCOC(=O)c1ccc(N=Cc2c(O)[nH]c(=O)[nH]c2=O)cc1
Criterion met

====

assay overview: Mycobacterium tuberculosis growth inhibition, primary screen (AID 1259343)
test settings: at 10 µM, hits give high values
About 2,900 (47%) of roughly 6,200 compounds were called active. So high a share suggests a set chosen from earlier hits. This is one part of the list.
Assign t to entries whose inhibition meets or exceeds 20%; assign f to the rest.

The following compounds have reported results that may help.
Identify whether the reported inhibition of the following compound is 20% or greater: CC1CCC(C(C)C)C(OC(=O)COC(=O)c2ccc([N+](=O)[O-])o2)C1 (stereo unspecified)
f

Identify whether the reported inhibition of the following compound is 20% or greater: CC(C)c1cc(=O)[nH]c(-n2nc(-c3cccs3)cc2NC(=O)c2cccc(F)c2)n1
t

Identify whether the reported inhibition of the following compound is 20% or greater: CN=c1scc(-c2ccccc2F)n1N=Cc1cccc(F)c1
t

Others:
Identify whether the reported inhibition of the following compound is 20% or greater: CC(OC(=O)c1ccc([N+](=O)[O-])o1)C(=O)Nc1ccccc1OC(F)F (stereo unspecified)
t

Identify whether the reported inhibition of the following compound is 20% or greater: COc1cc(N(C)CCC(O)c2ccccc2)ncn1 (stereo unspecified)
f

Identify whether the reported inhibition of the following compound is 20% or greater: CN(C)c1ccccc1NC(=O)c1ccccc1OC(F)F
t

Identify whether the reported inhibition of the following compound is 20% or greater: Cc1nc(SCC(=O)C23CC4CC(CC(C4)C2)C3)nc(C)c1C
t

Identify whether the reported inhibition of the following compound is 20% or greater: O=C(C1CCCC1)N1CCc2c([nH]c3ccccc23)C1c1cc(F)ccc1F (stereo unspecified)
t

Identify whether the reported inhibition of the following compound is 20% or greater: COc1cc(-c2cccc(O)c2)ncn1
t

Identify whether the reported inhibition of the following compound is 20% or greater: CN=c1scc(-c2ccc(F)cc2)n1N=Cc1ccccc1Br
f

Identify whether the reported inhibition of the following compound is 20% or greater: CCCCc1oc2ccccc2c1C(=O)c1cc(I)c(OCCN(CC)CC)c(I)c1
t

====

assay overview: Mycobacterium tuberculosis growth inhibition, primary screen (AID 1259343)
test settings: at 10 µM, hits give high values
Screen size: about 6,200 compounds; about 2,900 (47%) were called active. So high a share suggests a set chosen from earlier hits. Some of the results follow.
Assign True to entries whose inhibition meets or exceeds 60%; assign False to the rest.

The following compounds have reported results that may help.
Identify whether the reported inhibition of the following compound is 60% or greater: Cc1ccc(C(=O)N2CCC(c3ccc(F)cc3)CC2)s1
False

Identify whether the reported inhibition of the following compound is 60% or greater: Cc1ccc(-c2noc(CSc3ncccn3)n2)cc1
False

Identify whether the reported inhibition of the following compound is 60% or greater: CC(c1ccc(F)cc1)N(C)C(=O)CN1CC(O)CC1c1cc(F)ccc1F (configuration not stated)
True

Identify whether the reported inhibition of the following compound is 60% or greater: O=C(O)C1CCN(C(=O)c2ccc(-c3ccc(Cl)cc3)s2)CC1
False

Identify whether the reported inhibition of the following compound is 60% or greater: N#Cc1cccc(NC(=O)C2C3CC4CC(C3)CC2C4)c1 (configuration not stated)
False

Others:
Identify whether the reported inhibition of the following compound is 60% or greater: CC(=O)c1ccc(C(=O)N(C)C(C)c2ccc(Cl)cc2)s1 (configuration not stated)
False

Identify whether the reported inhibition of the following compound is 60% or greater: NC(=O)c1ccn(-c2cccc(Br)c2)n1
False

Identify whether the reported inhibition of the following compound is 60% or greater: Cc1ccc(-c2noc(COc3ccc(C(C)C)cc3)n2)cc1
True

====

assay overview: Mycobacterium tuberculosis growth inhibition, primary screen (AID 1259343)
test settings: at 10 µM, hits give high values
About 2,900 (47%) of roughly 6,200 compounds were called active. So high a share suggests a set chosen from earlier hits. The list shows a part of the results.
Assign Condition met to entries whose inhibition meets or exceeds 30%; assign Condition not met to the rest.

The following compounds have reported results that may help.
Identify whether the reported inhibition of the following compound is 30% or greater: O=C1/C(=C/c2csnn2)CCOc2cc(Br)ccc21
Condition met

Identify whether the reported inhibition of the following compound is 30% or greater: c1ccc2c(c1)CCN(c1ncnc3c1oc1ccccc13)C2
Condition not met

Others:
Identify whether the reported inhibition of the following compound is 30% or greater: COCC(C)C1CCN(C(=O)CC23CC4CC(CC(C4)C2)C3)CC1 (stereo not drawn)
Condition not met

Identify whether the reported inhibition of the following compound is 30% or greater: O=C(O)c1ccccc1CSc1ccc(N2CCCCC2)cc1
Condition met

Identify whether the reported inhibition of the following compound is 30% or greater: Cc1cc(Br)ccc1NC(=O)c1ccc([N+](=O)[O-])o1
Condition met

Identify whether the reported inhibition of the following compound is 30% or greater: CC(=NCCCn1ccnc1)c1c(-c2ccccc2)[nH]n(-c2nc3ccccc3s2)c1=O
Condition met

Identify whether the reported inhibition of the following compound is 30% or greater: Cc1ccc(-c2nc(-c3ccc(Br)cc3)no2)cc1
Condition not met

Identify whether the reported inhibition of the following compound is 30% or greater: Fc1ccccc1Cc1noc(CN2CCN(c3cccc(C(F)(F)F)c3)CC2)n1
Condition met

Identify whether the reported inhibition of the following compound is 30% or greater: O=S(=O)(c1ccc(Cl)s1)N1CCN(c2ccnc3cc(Cl)ccc23)CC1
Condition not met

Identify whether the reported inhibition of the following compound is 30% or greater: O=S(=O)(c1ccc(Cl)s1)N1CCN(c2ccc(F)cc2)CC1
Condition not met

Identify whether the reported inhibition of the following compound is 30% or greater: c1ccc(-c2ccc(-c3nccn3CCn3ccnc3)s2)cc1
Condition not met

Identify whether the reported inhibition of the following compound is 30% or greater: Cc1cc(S(=O)(=O)NC2CCCCC2C)ccc1Cl (stereo not drawn)
Condition not met

Identify whether the reported inhibition of the following compound is 30% or greater: O=C1C(=Cc2cc(Br)cs2)COc2ccccc21
Condition met

Identify whether the reported inhibition of the following compound is 30% or greater: CCN1CCN(c2c(CN(C(=O)Nc3ccc(SC)cc3)C(C)C)c(C)nn2-c2cccc(F)c2)CC1
Condition met

====

assay overview: Mycobacterium tuberculosis growth inhibition, primary screen (AID 1259343)
test settings: at 10 µM, hits give high values
The campaign covered roughly 6,200 compounds. About 2,900 (47%) were called active. So high a share suggests a set chosen from earlier hits. This is one part of the list.
inhibition for assorted molecules
Please reply with the bare figure in % and do not write the unit itself.

Please review the entries below; each comes with its answer.
Output inhibition of CCn1c(C)c(C(=O)CN(C(=O)c2ccc(Br)cc2)C2CCCCC2)c(C)c1C(=O)OC
22.6

Output inhibition of CCN1CCc2c(sc3nc(C4CCCCC4)nc(N4CCNCC4)c23)C1
50.1

Output inhibition of CCc1c(C)nc(-n2nc(C)cc2NC(=O)c2ccc(F)c(F)c2)[nH]c1=O
99.7

Output inhibition of Cc1ccccc1C1CC(N(C(=O)c2ccc(Br)cc2)C2CC2)C1 (stereo not given)
82.4

Output inhibition of CCc1c(C)nc(-n2nc(C)cc2NC(=O)c2ccccc2)[nH]c1=O
-16.5

Output inhibition of c1cc2c(cc1Oc1nc(CN3CCOCC3)nc3sc4c(c13)CCC4)CCC2
22.2

Output inhibition of Cc1cc(NC(=O)CNC(c2ccccn2)C(C)C)ccc1Cl (stereo not given)
79.4

Output inhibition of CCc1c(C)nc(-n2nc(C)cc2NC(=O)c2cccc([N+](=O)[O-])c2)[nH]c1=O
99.7

Others:
Output inhibition of O=C(O)CC[N+](=O)[O-]
98.6

Output inhibition of CCc1c(C)nc(-n2nc(C)cc2NC(=O)c2cccc(C)c2)[nH]c1=O
101
